system: dehydrogenase (cell-free extract); test: Amount of dehydrogenation of each substrate by enzyme (change in absorbance at 600 nm due to coenzyme); format: biochemical, Streptomyces albulus KO23; settings: relative value of change in absorbance at 600 nm, CFL set to 100; substrate 0.5 mM, 37° C.
PARAMETER: Amount of dehydrogenation
Respond numerically, and do not add a unit to the figure.

* CC(C)CC1NC(=O)C(Cc2ccc(O)cc2)NC1=O (stereo not drawn) [CLY] | 14
* O=C(O)CC1NC(=O)C(CC(=O)O)NC1=O (stereo not drawn) [CDD] | 14
* CSCCC1NC(=O)C(CCSC)NC1=O (stereo not drawn) [CMM] | 27

Query :: Request the reported Amount of dehydrogenation associated with O=C(O)CCC1NC(=O)C(CCC(=O)O)NC1=O (stereo not drawn) [CEE]
Result :: 14

Query :: Could you do the same for O=C1N[C@@H](Cc2c[nH]cn2)C(=O)N[C@H]1Cc1ccccc1 [CFH, cyclophenylalanylhistidyl] , please?
Result :: 44

Query :: Could you do the same for CC(C)C[C@@H]1NC(=O)[C@H](Cc2ccccc2)NC1=O [CFL] , please?
Result :: 100
